# assayName: ATG_TCF_b_cat_CIS: Attagene CIS-FACTORIAL HepG2 Assay for human T-Cell-Factor with beta-catenin (TCF/b-cat) (AID 2282965)
# assayConditions: HepG2 TCF/beta-catenin cis-reporter transcription, actives raise or lower the signal
The source made the active and inactive calls. How the source made its calls: active means hit-call score of the fitted dose curve at least 0.9, where 1 is the maximum; inactive means score below 0.9.
Classes used: Y for active, N for inactive

# compound, className
data = [
    ("CCOc1ccc(N=Nc2ccc(C=Cc3ccc(N=Nc4ccc(OCC)cc4)cc3S(=O)(=O)O)c(S(=O)(=O)O)c2)cc1", "N"),
    ("O=C(CS)OCCOC(=O)CS", "N"),
    ("CCOC(=O)[C@@H](C)Oc1ccc(Oc2nc3ccc(Cl)cc3o2)cc1", "N"),
    ("CCCCCCC(C)(C)S", "N"),
    ("C#CC(C)(O)CC(C)C (stereo not drawn)", "N"),
    ("O=C1CCCC=CCCCCCCCCCC1", "Y"),
    ("OC[C@H]1O[C@@H]2O[C@H]3[C@H](O)[C@@H](O)[C@@H](O[C@H]4[C@H](O)[C@@H](O)[C@@H](O[C@H]5[C@H](O)[C@@H](O)[C@@H](O[C@H]6[C@H](O)[C@@H](O)[C@@H](O[C@H]7[C@H](O)[C@@H](O)[C@@H](O[C@H]8[C@H](O)[C@@H](O)[C@@H](O[C@H]9[C@H](O)[C@@H](O)[C@@H](O[C@H]1[C@H](O)[C@H]2O)O[C@@H]9CO)O[C@@H]8CO)O[C@@H]7CO)O[C@@H]6CO)O[C@@H]5CO)O[C@@H]4CO)O[C@@H]3CO", "N"),
    ("COc1ccc(CCN2CCC(Nc3nc4ccccc4n3Cc3ccc(F)cc3)CC2)cc1", "N"),
    ("C=CCCCCCCCCCC", "N"),
    ("CC1(C)C(=O)N(Cl)C(=O)N1Br", "N"),
    ("C1=CC2C3C=CC(C3)C2C1 (stereo not drawn)", "N"),
    ("COc1ccc(CCC(C)=O)cc1", "N"),
    ("Nc1ccn([C@H]2CS[C@@H](CO)O2)c(=O)n1", "N"),
    ("CCCCCCCCc1ccc(S(=O)(=O)O)cc1", "N"),
    ("O=c1c(O)c(-c2ccc(O)cc2)oc2cc(O)cc(O)c12", "N"),
    ("Nc1ccc2cc(S(=O)(=O)O)cc(O)c2c1N=Nc1ccccc1C(F)(F)F", "N"),
    ("COC(=O)c1cccnc1", "N"),
    ("CN(C)c1cccc(O)c1", "N"),
    ("O=C(c1ccccc1)C(O)c1ccccc1 (stereo not drawn)", "N"),
    ("O=C1OC(=O)c2c(Cl)c(Cl)c(Cl)c(Cl)c21", "N"),
    ("OCCOCCN1CCN(C2=Nc3ccccc3Sc3ccccc32)CC1", "N"),
    ("CS(C)=O", "N"),
    ("CCCCCCCCSCCO", "N"),
]

###

# Read-out: Interferon-gamma inducible Protein 10 (IP10), CXCL10 (gene 3627)
# assayName: BSK_BE3C_IP10: BioMAP Diversity Plus: BE3C Assay for Interferon-gamma inducible Protein 10 (IP10) Biomarker Activity (AID 2283034)
# assayConditions: primary human bronchial epithelial cells; actives raise or lower the signal
Activity calls are given as the source filed them. Rule for the calls: active = hit-call score of the fitted dose curve at least 0.9, where 1 is the maximum; inactive = score below 0.9.
Classes used: yes for active, no for inactive

# molecule, className
rows = [
    ("CCCCN(CCCC)C(=O)N(CCCC)CCCC", "yes"),
    ("O=C(Nc1ccc2c(O)c(N=Nc3ccc(N=Nc4ccc(S(=O)(=O)O)cc4)cc3)c(S(=O)(=O)O)cc2c1)c1ccccc1", "no"),
    ("COc1ccc(OC)c(N=Nc2c(O)ccc3ccccc23)c1", "yes"),
    ("CSCCC=O", "no"),
    ("CS(=O)(=O)c1ccc(C2=C(c3ccccc3)C(=O)OC2)cc1", "no"),
    ("CN(C)C(=O)Nc1ccc(Oc2ccc(Cl)cc2)cc1", "no"),
    ("C=C(C)C(=O)OCCOCCOCCOCCOC(=O)C(=C)C", "no"),
    ("O=CN1CCOCC1", "no"),
    ("Oc1c(Cl)cc(Cl)c(Cl)c1Cc1c(O)c(Cl)cc(Cl)c1Cl", "yes"),
    ("IC(I)I", "no"),
    ("c1ccc2cc(Nc3ccc(Nc4ccc5ccccc5c4)cc3)ccc2c1", "no"),
    ("CC(=O)c1c(C)c([N+](=O)[O-])c(C(C)(C)C)c([N+](=O)[O-])c1C", "no"),
    ("CS(=O)(=O)OCCCCOS(C)(=O)=O", "no"),
    ("Cc1cc(CCC(=O)OCCOCCOCCOC(=O)CCc2cc(C)c(O)c(C(C)(C)C)c2)cc(C(C)(C)C)c1O", "yes"),
    ("CCOC(=O)C(C#N)=C(c1ccccc1)c1ccccc1", "no"),
    ("CN(C)C(=S)SC(=S)N(C)C", "yes"),
    ("CC1(C)C2=CCCC(C)(C)[C@]23CC[C@H]1C3", "yes"),
    ("CCCCOC(=O)CCCCCCCC(=O)OCCCC", "no"),
    ("CC(C)(N=C=O)c1cccc(C(C)(C)N=C=O)c1", "no"),
    ("C=C(C)C(=O)OCC(CC)(COC(=O)C(=C)C)COC(=O)C(=C)C", "no"),
    ("O=C1OC[C@H](Cc2cccc(O)c2)[C@H]1Cc1cccc(O)c1", "no"),
    ("C1=CC2C3C=CC(C3)C2C1 (stereo not given)", "no"),
    ("C=C(C)[C@H]1CC=C(C)C(=O)C1", "no"),
    ("CCC(C)c1cc([N+](=O)[O-])cc([N+](=O)[O-])c1OC(=O)OC(C)C (stereo not given)", "yes"),
    ("C=C(C)C(=O)OCCOCCOCCOC(=O)C(=C)C", "no"),
]

###

# measurementTarget: human Phosphodiesterase 10 (PDE10), PDE10A (gene 10846)
# assayName: NVS_ENZ_hPDE10: NovaScreen (NVS) Enzymatic Assay for human Phosphodiesterase 10 (PDE10) (AID 2283195)
Results filed as inconclusive are left out. The source made the active and inactive calls. How the source made its calls: active means hit-call score of the fitted dose curve at least 0.9, where 1 is the maximum; inconclusive means response in the unintended direction; inactive means score below 0.9.
Classes used: active, inactive

# compound, measurementTarget, className
rows = [
    ("Oc1c(Cl)cc(Cl)c(Cl)c1Cc1c(O)c(Cl)cc(Cl)c1Cl", "human Phosphodiesterase 10 (PDE10), PDE10A (gene 10846)", "inactive"),
    ("Cc1ncc([N+](=O)[O-])n1CCO", "human Phosphodiesterase 10 (PDE10), PDE10A (gene 10846)", "inactive"),
    ("O=[N+]([O-])c1cccc(Cl)c1", "human Phosphodiesterase 10 (PDE10), PDE10A (gene 10846)", "active"),
    ("CCC1CCCCC1", "human Phosphodiesterase 10 (PDE10), PDE10A (gene 10846)", "inactive"),
    ("CC=Cc1ccc(OCC)c(O)c1", "human Phosphodiesterase 10 (PDE10), PDE10A (gene 10846)", "inactive"),
    ("CCCCC(CC)(CO)CO", "human Phosphodiesterase 10 (PDE10), PDE10A (gene 10846)", "inactive"),
    ("CC(C)Nc1nc(N)nc(Cl)n1", "human Phosphodiesterase 10 (PDE10), PDE10A (gene 10846)", "inactive"),
    ("CCC(C)c1cc([N+](=O)[O-])cc([N+](=O)[O-])c1OC(=O)OC(C)C (configuration not stated)", "human Phosphodiesterase 10 (PDE10), PDE10A (gene 10846)", "inactive"),
    ("C=C(C)[C@H]1CC=C(C)C(=O)C1", "human Phosphodiesterase 10 (PDE10), PDE10A (gene 10846)", "inactive"),
    ("COc1cccc(OC)c1O", "human Phosphodiesterase 10 (PDE10), PDE10A (gene 10846)", "inactive"),
    ("C=CC(=O)OCCCC", "human Phosphodiesterase 10 (PDE10), PDE10A (gene 10846)", "active"),
    ("O=CN1CCOCC1", "human Phosphodiesterase 10 (PDE10), PDE10A (gene 10846)", "inactive"),
]

###

# assayName: ATG_PXRE_CIS: Attagene CIS-FACTORIAL HepG2 Assay for human Pregnane X Receptor Element (PXRE) (AID 2282957)
# assayConditions: HepG2 Attagene CIS-FACTORIAL PXRE reporter, mRNA; actives raise or lower the signal
# Experimental: ATG_CIS is a cell-based, multiplexed-readout assay that uses HepG2, a human liver cell line, with measurements taken at 24 hours after chemical dosing in a 24-well plate.ATG_PXRE_CIS is one of 52 assay component(s) measured or calculated from the ATG_CIS assay. […] This assay endpoint, ATG_PXRE_CIS, was analyzed with bidirectional fitting relative to DMSO as the negative control and baseline of activity. […]
Active and inactive are the calls of the source. How the source made its calls: active means hit-call score of the fitted dose curve at least 0.9, where 1 is the maximum; inactive means score below 0.9.
Classes used: active, inactive

# compound, className
records = [
    ("Cc1cc(=O)oc2cc(N(C)C)ccc12", "inactive"),
    ("CCOC(=O)COC(=O)c1cc(Oc2ccc(C(F)(F)F)cc2Cl)ccc1[N+](=O)[O-]", "active"),
    ("ON=C1CCCCC1", "inactive"),
    ("C=CC(C)C#N (centres undefined)", "inactive"),
    ("CCc1cc(C(C)(C)C)c(O)c(C(C)(C)C)c1", "active"),
    ("COc1ccccc1[N+](=O)[O-]", "active"),
    ("COc1cc(CCC(C)=O)ccc1O", "inactive"),
    ("CCNCCO", "inactive"),
    ("O=C1OC2(c3ccccc31)c1ccc(O)c(Br)c1Oc1c2ccc(O)c1Br", "active"),
    ("CC(=O)OCCCc1ccccc1", "active"),
    ("COC(=O)c1ccc(OC)cc1", "inactive"),
    ("CC(=O)c1c(C)c([N+](=O)[O-])c(C(C)(C)C)c([N+](=O)[O-])c1C", "active"),
    ("CCCCCCCCCCCCCC(=O)OCC(O)CO (centres undefined)", "inactive"),
    ("Cc1ccc(S(=O)(=O)Oc2ccc(N=Nc3ccc(-c4ccc(N=Nc5c(O)ccc6cc(S(=O)(=O)O)cc(S(=O)(=O)O)c56)c(C)c4)cc3C)cc2)cc1", "active"),
    ("CS(=O)(=O)c1ccc(C2=C(c3ccccc3)C(=O)OC2)cc1", "active"),
    ("CC(=O)NCCO", "inactive"),
    ("c1ccc2[nH]cnc2c1", "inactive"),
    ("COc1cc([C@@H]2c3cc4c(cc3[C@@H](O[C@@H]3O[C@@H]5CO[C@@H](C)O[C@H]5[C@H](O)[C@H]3O)[C@H]3COC(=O)[C@H]23)OCO4)cc(OC)c1O", "active"),
    ("CCCC(C)C(O)CC (centres undefined)", "inactive"),
    ("C=C(C)C(=O)OCC(CC)(COC(=O)C(=C)C)COC(=O)C(=C)C", "active"),
    ("CC1(C)O[C@@H]2[C@@H](CO[C@@]3(COS(N)(=O)=O)OC(C)(C)O[C@@H]23)O1", "active"),
    ("C=C(C)[C@@H]1CC=C(C)C(=O)C1", "active"),
    ("COS(=O)(=O)O", "inactive"),
    ("Nc1ccc(N)c2c1C(=O)c1ccccc1C2=O", "inactive"),
    ("CCCCCCCCCC(=O)OC", "inactive"),
    ("CN1C(=O)c2ccccc2C1=O", "inactive"),
    ("CC(C)CCCCCCc1ccc(OCCOCCO)cc1", "inactive"),
    ("CCCCN(CCCC)C(=O)N(CCCC)CCCC", "active"),
    ("CC1CC(O)CC(C)(C)C1 (centres undefined)", "inactive"),
    ("C=C[Si]1(C)O[Si](C)(C=C)O[Si](C)(C=C)O[Si](C)(C=C)O1 (centres undefined)", "active"),
    ("CCCC1O[C@@H]2C[C@H]3[C@@H]4CCC5=CC(=O)C=C[C@]5(C)[C@H]4[C@@H](O)C[C@]3(C)[C@]2(C(=O)CO)O1 (some centres undefined)", "active"),
    ("N[C@@H](Cc1cc(I)c(Oc2cc(I)c(O)c(I)c2)c(I)c1)C(=O)O", "active"),
    ("OCC(O)c1ccccc1 (centres undefined)", "inactive"),
    ("CC/C=C\\CCOC(=O)CC", "inactive"),
    ("BrCc1cccc(Oc2ccccc2)c1", "active"),
    ("Cc1cc(C)nc(NS(=O)(=O)c2ccc(N)cc2)n1", "active"),
    ("[Cl][Au]([Cl])[Cl]", "inactive"),
    ("C=Cc1ccc(C)cc1", "active"),
    ("NCC1CCCC(CN)C1 (centres undefined)", "inactive"),
    ("CC(C)=CCCC(C)CCOC=O (centres undefined)", "active"),
    ("C=CC(=O)OCCCC", "inactive"),
    ("CCCCCCC(C)(C)S", "active"),
    ("CCCCOC(=O)CCCCCCCC(=O)OCCCC", "inactive"),
    ("O=C(Nc1ccc([N+](=O)[O-])cc1)Nc1ccc([N+](=O)[O-])cc1 (tested in a mixture with another compound)", "inactive"),
    ("CC(C)OCCO", "inactive"),
    ("CCCCCCCCCCCC(=O)OC[C@@H](O)[C@H]1OC[C@H](O)[C@H]1O", "inactive"),
    ("CCC1(c2ccccc2)C(=O)NCNC1=O", "inactive"),
    ("CCCCCCC(=O)c1ccccc1", "active"),
    ("CCCCCCCCc1ccc(S(=O)(=O)O)cc1", "inactive"),
    ("O=[N+]([O-])c1cccc(Cl)c1", "inactive"),
    ("CN(C)CCOc1ccc(/C(=C(/CCCl)c2ccccc2)c2ccccc2)cc1", "active"),
    ("CN(C)C(=O)Nc1ccc(Oc2ccc(Cl)cc2)cc1", "active"),
    ("CCC(C)S (centres undefined)", "inactive"),
    ("Cc1ccc(OC(=O)c2ccccc2O)cc1", "inactive"),
]
